- measurement_target: human trypsin (human, UniProt P07477)
No end group written: not given here.
Please mark 1 if the recorded Trypsin IC50 [nM], inhibition of enzymatic activity, fluorogenic substrate is equal to or greater than 20 nM, and -1 if it falls below.

Check out these entries, answers already filled in.
| binder | class_assignment |
| --- | --- |
| TFPI mut12EA (SEQ ID NO: 30) (designed binder) EAMHSFCAFKASTGPCKARIIRFFFNIFTRQCEEFIYGGCEGNQNRFESLEECKKMCTRD | 1 |
| TFPI mut3EA (SEQ ID NO: 19) (designed binder, ends and bridges not checked; cysteine pairing not given here) EAMHSFCAFKAETGPCRAAHPRWFFNIFTRQCEEFIYGGCEGNQNRFESLEECKKMCTRD | -1 |
| TFPI mut15EA (SEQ ID NO: 31) (designed binder) EAMHSFCAFKAVTGPCRAAMKRFWFNIFTRQCEEFIYGGCEGNQNRFESLEECKKMCTRD | -1 |

API: above_or_equal(metric=Trypsin IC50 [nM], inhibition of enzymatic activity, fluorogenic substrate, cutoff=20 nM) for item TFPI mut6 (SEQ ID NO: 9) (designed binder) MHSFCAFKADDGPCKAIMKRFWFNIFTRQCEEFIYGGCEGNQNRFESLEECKKMCTRD
1

API: above_or_equal(metric=Trypsin IC50 [nM], inhibition of enzymatic activity, fluorogenic substrate, cutoff=20 nM) for item TFPI mut4EA (SEQ ID NO: 20) (designed binder) EAMHSFCAFKAETGPCRAAHPRWWFNIFTRQCEEFIYGGCEGNQNRFESLEECKKMCTRD
-1

API: above_or_equal(metric=Trypsin IC50 [nM], inhibition of enzymatic activity, fluorogenic substrate, cutoff=20 nM) for item TFPI mut11EA (SEQ ID NO: 29) (designed binder) EAMHSFCAFKAVTGPCRASFPRWFFNIFTRQCEEFIYGGCEGNQNRFESLEECKKMCTRD
-1

API: above_or_equal(metric=Trypsin IC50 [nM], inhibition of enzymatic activity, fluorogenic substrate, cutoff=20 nM) for item TFPI mut2 (SEQ ID NO: 7) (designed binder) MHSFCAFKADDGPCRAAMKRFFFNIFTRQCEEFIYGGCEGNQNRFESLEECKKMCTRD
-1

API: above_or_equal(metric=Trypsin IC50 [nM], inhibition of enzymatic activity, fluorogenic substrate, cutoff=20 nM) for item TFPI mut8EA (SEQ ID NO: 26) (designed binder) EAMHSFCAFKAYTGPCKAAIIRFFFNIFTRQCEEFIYGGCEGNQNRFESLEECKKMCTRD
1

API: above_or_equal(metric=Trypsin IC50 [nM], inhibition of enzymatic activity, fluorogenic substrate, cutoff=20 nM) for item TFPI mut3 (SEQ ID NO: 4) (designed binder) MHSFCAFKAETGPCRAAHPRWFFNIFTRQCEEFIYGGCEGNQNRFESLEECKKMCTRD
-1

API: above_or_equal(metric=Trypsin IC50 [nM], inhibition of enzymatic activity, fluorogenic substrate, cutoff=20 nM) for item TFPI mut5 (SEQ ID NO: 8) (designed binder) MHSFCAFKADDGPCRAAHPRWWFNIFTRQCEEFIYGGCEGNQNRFESLEECKKMCTRD
1

API: above_or_equal(metric=Trypsin IC50 [nM], inhibition of enzymatic activity, fluorogenic substrate, cutoff=20 nM) for item TFPI mut4 (SEQ ID NO: 5) (designed binder) MHSFCAFKAETGPCRAAHPRWWFNIFTRQCEEFIYGGCEGNQNRFESLEECKKMCTRD
-1
